From: patent US11897904B2

For each record, write down the corresponding herbicidal activity AMARE.
Test system: AMARE
Assay: Pre-emergence herbicidal action
Assay type: in vivo, Amaranthus retroflexus
Conditions: 320 g/ha, scored visually after about 3 weeks vs untreated controls
Expressed in %, but write only the number.

For the compound shown here, Cc1ccc(C(=O)Nc2nnnn2C)c2c1[S+]([O-])CO2 (stereo not shown) , give the reported herbicidal activity AMARE.
90

# iterate: CC1Oc2c(C(=O)Nc3nnnn3C)ccc(C(F)(F)F)c2S1(=O)=O (stereo not shown)
100

Another compound to look at: `Cn1nnnc1NC(=O)c1ccc(C(F)F)c2c1OCS2`
80

Lookup CCn1nnnc1NC(=O)c1ccc(C(F)(F)F)c2c1OC[S+]2[O-] (stereo not shown)
100

Another compound to look at: `CCn1nnnc1NC(=O)c1ccc(C(F)(F)F)c2c1OCS2(=O)=O`
100

Quick one: `CCn1nnnc1NC(=O)c1ccc(C(F)(F)F)c2c1OCS2`
100

How about this compound: `Cn1nnnc1NC(=O)c1ccc(C(F)F)c2c1OCS2(=O)=O`
100

Same read-out for Cn1nnnc1NC(=O)c1ccc(C(F)F)c2c1OC[S+]2[O-] (stereo not shown) ?
100

How about this compound: `CCn1nnnc1NC(=O)c1ccc(C(F)F)c2c1OCS2`
90

Cn1nnnc1NC(=O)c1ccc(C(F)(F)F)c2c1OC[S+]2[O-] (stereo not shown) ?
100

Field entry: CC1Oc2c(C(=O)Nc3nnnn3C)ccc(C(F)(F)F)c2S1 (stereo not shown)
100

What do you get for `Cc1ccc(C(=O)Nc2nnnn2C)c2c1S(=O)(=O)CO2` ?
90

Same for `Cn1nnnc1NC(=O)c1ccc(C(F)(F)F)c2c1OCS2(=O)=O`
100

* * *

Give herbicidal activity VERPE for every item shown.
Test system: VERPE
Assay: Pre-emergence herbicidal action
Format: in vivo, Veronica persica
Details: 320 g/ha, scored visually after about 3 weeks vs untreated controls
Lab book: enter the figure in %, no units written.

Item: Cn1nnnc1NC(=O)c1ccc(C(F)(F)F)c2c1OC[S+]2[O-] (stereo not shown) [Example 2-68] Test system: VERPE Read-out: herbicidal activity VERPE Value: ?
100

// next record CCn1nnnc1NC(=O)c1ccc(C(F)(F)F)c2c1OCS2 [Example 3-52]
80

What about CSc1ccc(C(=O)Nc2nnnn2C)c2c1OC(F)(F)O2 [Example 2-13] ?
90

Cn1nnnc1NC(=O)c1ccc(C(F)F)c2c1OC[S+]2[O-] (stereo not shown) [Example 2-69] , same question.
90

Entry Cc1ccc(C(=O)Nc2nnnn2C)c2c1[S+]([O-])CO2 (stereo not shown) [Example 2-65] please
80

One more compound: Cn1nnnc1NC(=O)c1ccc(S(C)(=O)=O)c2c1OC(F)(F)O2 [Example 2-15]
90

Item: CCn1nnnc1NC(=O)c1ccc(C(F)(F)F)c2c1OC[S+]2[O-] (stereo not shown) [Example 3-67]
100

What do you have for Cn1nnnc1NC(=O)c1ccc(C(F)(F)F)c2c1OCS2(=O)=O [Example 2-83] ?
100

Next compound: Cn1nnnc1NC(=O)c1ccc(C(F)F)c2c1OCS2(=O)=O [Example 2-84]
100

What about this compound? CCn1nnnc1NC(=O)c1ccc(C(F)(F)F)c2c1OCS2(=O)=O [Example 3-82]
100
